# experiment-description: Aqueous chemical stability in phosphate buffer (HPLC, first-order decay)
# Format: physicochemical
# assay-setup: half-life of the compound in buffer phosphate (100 mM), pH 8, 37° C., half-lives >360 min estimated from initial slope at low conversion (<10%)
Counter-ions that a name gives are not always drawn.
Each entry gets F if its pH 8 (t½, min) stays under 30 min, and T if its pH 8 (t½, min) is 30 min or above.

| molecule | class-label |
| --- | --- |
| COC(=O)/C=C/C(=O)OCCN(C)C [Compound 19, fumarate hydrochloride] | F |
| COC(=O)/C=C/C(=O)OCCN1CCCC1 [Compound 18, fumarate hydrochloride] | F |
| COC(=O)/C=C/C(=O)OCCN1CCOCC1 [Compound 16, fumarate hydrochloride] | F |
| CCN(CC)CCOC(=O)/C=C/C(=O)OC [Compound 20, fumarate hydrochloride] | F |
| COC(=O)/C=C/C(=O)OCCS(C)(=O)=O [Compound 10] | T |
| COC(=O)/C=C/C(=O)OCCN1CCC2(CC1)OCCO2 [Compound 17, fumarate hydrochloride] | F |
| COC(=O)/C=C/C(=O)OCCNc1ccccc1 [Compound 8, fumarate hydrochloride] | T |
| COC(=O)/C=C/C(=O)OCC(C)(C)N(C)C [Compound 9, fumarate hydrochloride] | F |
| COC(=O)/C=C/C(=O)OCCN1C(=O)CCC1=O [Compound 14] | T |
| COC(=O)/C=C/C(=O)OCCN1CCSCC1 [Compound 7, fumarate hydrochloride] | F |
| COC(=O)/C=C/C(=O)OCCN(C)c1ccccc1 [Compound 12, fumarate hydrochloride] | T |
| CCN(CC)C(=O)COC(=O)/C=C/C(=O)OC [Reference Compound A, reference compound] | T |
| COC(=O)/C=C/C(=O)OC(C)CN(C)C (stereo not drawn) [Compound 6, fumarate hydrochloride] | F |
| COC(=O)/C=C/C(=O)OCCN1CCCCC1 [Compound 15, fumarate hydrochloride] | F |
| COC(=O)/C=C/C(=O)OCCN1CCS(=O)(=O)CC1 [Compound 11, fumarate hydrochloride] | T |
